B1: TNXB (parent)
chain: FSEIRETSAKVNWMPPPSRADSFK

Variants of: B1
assay: protein stability index of a GFP-peptide fusion (GPS, HEK-293T) (PSI 1-6); higher = more stable;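 further: lentivirally expressed fusions sorted by FACS into six bins by GFP to DsRed ratio, PSI derived from sequencing read proportions per bin multiplied by bin number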
settings: c terminus: a fixed tail appended
readoutKind: protein stability index
Answer using only a numeral; do not append any unit.

Example results:
FSEIRETSAKVNRMPPPSRADSFK | 4.21
FSEIRETSAKVNWMPPPSRADSFH | 2.73
FSEIRETSAKVNPMPPPSRADSFK | 4.43
FSEIRETSAKVNWMVPPSRADSFK | 3.48
FSEPRETSAKVNWMPPPSRADSFK | 4.16
FSEIRETSAKVTWMPPPSRADSFK | 2.9
FSTIRETSAKVNWMPPPSRADSFK | 3.52
FSEIRETSAKVNWMPPVSRADSFK | 3.23
FSEIRETDAKVNWMPPPSRADSFK | 4.48
FSEIRETSAKVNGMPPPSRADSFK | 4.15

(Q) Look up protein stability index: `FSEIRETSAKVNWMPPPSRADSFI`
(A) 2.44

(Q) Look up protein stability index: `FSEIRETSAKMNWMPPPSRADSFK`
(A) 3.17

(Q) Look up protein stability index: `FSEIRETSAKVKWMPPPSRADSFK`
(A) 2.88

(Q) Look up protein stability index: `FSEIRETSAAVNWMPPPSRADSFK`
(A) 3.92

Source listed as the supplement of paper PMC10567573.
